Source listed as paper PMC8510478.

Each entry below carries its reported pIC50.
# measurement-target: α-glucosidase
# protocol-notes: α-Glucosidase inhibitory activity (rat intestinal acetone powder, maltose substrate)
# Format: biochemical
# condition-details: maltose, pH 7, 37 °C, means ± SE (n = 3), read-out: Inhibitory Effects on α-Glucosidase Activity IC50
# Procedure: The α-glucosidase inhibitory activity was tested according to the previously described method by Kirino et al. with a slight modification. Rat intestinal acetone powder was mixed with 0.1 M phosphate buffer (pH 7) and centrifuged at 18,500× g and 4 °C for 20 min. […] The amount of glucose in the reaction mixtures was determined using the F-Kit glucose (Roche diagnostics, Co., Tokyo, Japan) by measuring the absorbance at 340 nm. […]
pIC50: −log10 of the molar value.
measure: pIC50

compound	measure	test-value
O=C(OC[C@H]1O[C@@H](OC(=O)c2cc(O)c(O)c(O)c2)[C@H](OC(=O)c2cc(O)c(O)c(O)c2)[C@@H](O)[C@@H]1OC(=O)c1cc(O)c(O)c(O)c1)c1cc(O)c(O)c(O)c1 [Compound 6, 1,2,4,6-tetra-O-galloyl-β-D-glucose]	pIC50	< 4.00
COc1cc([C@H]2Oc3c(OC)cc(CCCO)cc3[C@@H]2CO)ccc1O [Compound 13]	pIC50	< 4.00
COc1cc(C2Oc3c(OC)cc(CCCO)cc3C2COC2OC(CO)C(O)C(O)C2O)ccc1O (stereo not drawn) [Compound 10]	pIC50	< 4.00
O=C(OC[C@H]1O[C@@H](OC(=O)c2cc(O)c(O)c(O)c2)[C@H](OC(=O)c2cc(O)c(O)c(O)c2)[C@@H](OC(=O)c2cc(O)c(O)c(O)c2)[C@@H]1OC(=O)c1cc(O)c(O)c(O)c1)c1cc(O)c(O)c(O)c1 [1,2,3,4,6-Penta-O-galloyl-β-D-glucose, reference compound]	pIC50	4.23
O=C(O[C@@H]1O[C@@H]2COC(=O)c3cc(Oc4ccc(O)c(O)c4O)c(O)c(O)c3-c3c(cc(O)c(O)c3O)C(=O)O[C@H]2[C@H](OC(=O)c2cc(O)c(O)c(O)c2)[C@H]1OC(=O)c1cc(O)c(O)c(O)c1)c1cc(O)c(O)c(O)c1 [Compound 8, decarboxylated rugosin A]	pIC50	4.68
O=c1oc2c(O)c(O)cc3c(=O)oc4c(O)c(O)cc1c4c23 [Ellagic acid, reference compound]	pIC50	< 4.00
O=c1oc2c(Oc3ccc(O)c(O)c3O)c(O)cc3c(=O)oc4c(O)c(O)cc1c4c23 [Compound 11, rubuphenol]	pIC50	< 4.00
O=C(O[C@@H]1O[C@@H]2COC(=O)c3cc(Oc4c(C(=O)O[C@H]5C(O)O[C@@H]6COC(=O)c7cc(O)c(O)c(O)c7-c7c(cc(O)c(O)c7O)C(=O)O[C@H]6[C@@H]5OC(=O)c5cc(O)c(O)c(O)c5)cc(O)c(O)c4O)c(O)c(O)c3-c3c(cc(O)c(O)c3O)C(=O)O[C@H]2[C@H](OC(=O)c2cc(O)c(O)c(O)c2)[C@H]1OC(=O)c1cc(O)c(O)c(O)c1)c1cc(O)c(O)c(O)c1 (stereo partly drawn) [Compound 9, camptothin B]	pIC50	< 4.00
O=c1oc2c(O)c(Oc3ccc(O)c(O)c3O)cc3c(=O)oc4c(O)c(O)cc1c4c23 [Compound 12, eschweilenol A]	pIC50	< 4.00
